Provenance of the data: patent US20110097365A1

Exercise: state measured εmax for each of the compounds provided.
Experiment: UV absorption of the derivatives in DMSO/ethanol
Format: physicochemical
Settings: at the λmax of the same block

Examples with answers:
Substance smiles: CCCCOC(=O)c1ccc(Nc2nc(Nc3ccc(C(=O)OC[Si](C)(C)C)cc3)nc(Nc3ccc(C(=O)OC[Si](C)(C)C)cc3)n2)cc1
εmax: 104 560
//
Substance smiles: C[Si](C)(C)COC(=O)c1ccc(Nc2nc(Nc3ccc(C(=O)OC[Si](C)(C)C)cc3)nc(Nc3ccc(C(=O)OC[Si](C)(C)C)cc3)n2)cc1
εmax: 126 660
//
Substance smiles: C[Si](C)(C)CNC(=O)c1ccc(Nc2nc(Nc3ccc(C(=O)NC[Si](C)(C)C)cc3)nc(Nc3ccc(C(=O)NC[Si](C)(C)C)cc3)n2)cc1
εmax: 83 330

Now, please, on to the next compound.
Could you share which εmax value was measured for COc1ccc(-c2nc(Nc3ccc(C(=O)OC[Si](C)(C)C)cc3)nc(Nc3ccc(C(=O)OC[Si](C)(C)C)cc3)n2)cc1 ? 82 700

###

Exercise: state measured E1% for each of the molecules provided.
Experiment: UV absorption of the derivatives in DMSO/ethanol
Assay type: physicochemical
Conditions: at the λmax of the same block
One number for each entry.

Substance smiles: CCCCOC(=O)c1ccc(Nc2nc(Nc3ccc(C(=O)OC[Si](C)(C)C)cc3)nc(Nc3ccc(C(=O)OC[Si](C)(C)C)cc3)n2)cc1
Value measured: 1660

Working through the 3 molecules below one at a time, give E1% for each.
1. COc1ccc(-c2nc(Nc3ccc(C(=O)OC[Si](C)(C)C)cc3)nc(Nc3ccc(C(=O)OC[Si](C)(C)C)cc3)n2)cc1
2. C[Si](C)(C)COC(=O)c1ccc(Nc2nc(Nc3ccc(C(=O)OC[Si](C)(C)C)cc3)nc(Nc3ccc(C(=O)OC[Si](C)(C)C)cc3)n2)cc1
3. C[Si](C)(C)CNC(=O)c1ccc(Nc2nc(Nc3ccc(C(=O)NC[Si](C)(C)C)cc3)nc(Nc3ccc(C(=O)NC[Si](C)(C)C)cc3)n2)cc1

1. 1313
2. 1700
3. 1123

###

Exercise: state measured λmax for each of the compounds provided.
Test: UV absorption of the derivatives in DMSO/ethanol
Assay type: physicochemical
Answers are plain numbers, in nm.

Substance smiles: C[Si](C)(C)COC(=O)c1ccc(Nc2nc(Nc3ccc(C(=O)OC[Si](C)(C)C)cc3)nc(Nc3ccc(C(=O)OC[Si](C)(C)C)cc3)n2)cc1
Quantity measured: λmax
Value measured: 314
//
Substance smiles: CCCCOC(=O)c1ccc(Nc2nc(Nc3ccc(C(=O)OC[Si](C)(C)C)cc3)nc(Nc3ccc(C(=O)OC[Si](C)(C)C)cc3)n2)cc1
Quantity measured: λmax
Value measured: 313

Working through the 2 compounds below one at a time, give λmax for each.
1. C[Si](C)(C)CNC(=O)c1ccc(Nc2nc(Nc3ccc(C(=O)NC[Si](C)(C)C)cc3)nc(Nc3ccc(C(=O)NC[Si](C)(C)C)cc3)n2)cc1
2. COc1ccc(-c2nc(Nc3ccc(C(=O)OC[Si](C)(C)C)cc3)nc(Nc3ccc(C(=O)OC[Si](C)(C)C)cc3)n2)cc1

[303, 303]
